Test system: K-562 leukemia
MEASUREMENT_NOTES: NCI tumour cell line growth inhibition, 48 h
ENDPOINT: TGI

* O=C(c1ccc(Cl)cc1)c1ccc(OCCCCCCCCCCOc2ccc(C(=O)c3ccc(Cl)cc3)cc2)cc1 | > 100 µM
* COC(=O)C(C(=O)C(=O)Nc1ccc(C(F)(F)F)cc1[N+](=O)[O-])c1csc(-n2nc(-c3ccccc3)cc2-c2ccccc2)n1 (stereo not given) | > 100 µM
* COc1ccccc1/C=C1\CCC(CCN(C)C)(C2=CCCC2)C1=O (stereo not given) | 56.2 µM
* CCc1cccc(C(C)C)c1NC(=O)C(=O)CC(=O)c1c(C)n([O-])c2ccccc2[n+]1=O | > 100 µM

Turning now to a further compound:
TGI for `CCOC(=O)C1=C(c2ccccc2)N(C)c2ccccc2S1` ?
> 100 µM

The measurements presented in this section are drawn from PubChem BioAssay (NCI).
